assay: physchem; settings: buffer, pH 7.4
1 means recorded chromatographic logD is 3 or above; -1 means it is below 3.

* CC(=O)Nc1c(F)cc(C(=O)N[C@H]2CC[C@H](O)CC2)cc1O[C@@H](C)c1ccccc1 | -1
* CNC(=O)c1cc(C(=O)N[C@H]2[C@@H]3C[C@@H](O)C[C@@H]32)cc(Cc2ccccc2)n1 | 1
* CCNC(=O)c1cc(Cc2ccccc2)nc(C(=O)NC)c1 | 1
* CNC(=O)c1cc(C(=O)NC2CC2)cc([C@@H](C)c2ccccc2)n1 | 1
* CNC(=O)c1cc(C(=O)N[C@H]2[C@@H]3COC[C@@H]32)cc(Cc2cccc3[nH]ccc23)n1 | 1
* CC(=O)Nc1ccc(C(=O)NCCc2cnc[nH]2)cc1OCc1ccccc1 | -1
* CNC(=O)c1cc(C(=O)NC2CC2)cc(Cc2cccc3cn[nH]c23)n1 | -1
* CNC(=O)c1cc(C(=O)NC2CC2)cc(Cc2cccc3[nH]ccc23)n1 | 1
* CNC(=O)c1cc(C(=O)N[C@H]2C[C@@H]2C)cc(C(OC)c2ccccc2)n1 (stereo not given in full) | 1
* CNC(=O)c1cc(C(=O)N[C@H]2CC[C@H](O)CC2)cc(Cc2ccccc2)n1 | 1

====

assay: Oral bioavailability in Wistar Han rat at 3 mg/kg administered via gavage by LC-MS/MS analysis; format: ADME, organism-based; details: in vivo
The threshold is inclusive: bioavailability of exactly 60% counts as Met; values below receive Not met.

- CNC(=O)c1cc(C(=O)NC2CC2)cc(Cc2cccc3c2CCN3)n1.Cl: Met
- CNC(=O)c1cc(C(=O)N[C@H]2[C@@H]3COC[C@@H]32)cc([C@@H](C)c2ccccc2)n1: Not met
- CNC(=O)c1cc(C(=O)N[C@H]2[C@@H]3COC[C@@H]32)cc(Cc2ccccc2)n1: Met
- CNC(=O)c1cc(C(=O)NCCC[C@H]2OC[C@H](N)CO2)cc(Cc2ccccc2)n1: Not met
- CNC(=O)c1cc(C(=O)N[C@H]2[C@@H]3COC[C@@H]32)cc(Cc2cccc3[nH]ccc23)n1: Met

====

Below: a set of entries, each annotated with reported bioavailability.
assay: Oral bioavailability in Beagle dog; assay type: ADME, organism-based, Canis lupus familiaris; details: in vivo
measurement.type: bioavailability (%)

• CNC(=O)c1cc(C(=O)N[C@H]2C[C@@H]2C)cc(Cc2cccc3[nH]ccc23)n1 = 55
• CNC(=O)c1cc(C(=O)N[C@H]2C[C@@H]2C)cc([C@@H](O)c2ccccc2)n1 = 35
• CNC(=O)c1cc(C(=O)N[C@H]2[C@@H]3COC[C@@H]32)cc(C(OC)c2ccccc2)n1 (some centres not stated) = 65
• CNC(=O)c1cc(C(=O)N[C@H]2[C@@H]3COC[C@@H]32)cc(Cc2ccccc2)n1 = 10
• CNC(=O)c1cc(C(=O)N[C@H]2[C@@H]3COC[C@@H]32)cc([C@@H](C)c2ccccc2)n1 = 14
• CNC(=O)c1cc(C(=O)NCCC[C@H]2OC[C@H](N)CO2)cc(Cc2ccccc2)n1 = 98
• CNC(=O)c1cc(C(=O)N[C@H]2[C@@H]3COC[C@@H]32)cc(Cc2cccc3[nH]ccc23)n1 = 41
